Examples of sequences with documented apparent KD of MS2 coat protein follow.
test system: MS2 coat protein; assay: apparent KD of MS2 coat protein; higher = weaker reporter binding; conditions: Eterna round: R107; input ligand: arginine 13.2 mM
# value in nM; strip the unit string

Please review the following examples before continuing.
GUUGGACUUUCGGCCGCCACUGAGAGAGUCGUGUGAACAUGAGGAUCACCCAUGUAAUAUAUAUACAGGACCGGGAGGGUUGUAA [4.N]    8.94
AGACAUGAGGAUCACCCAUGUAGCAUGGAUACCAGAUGUAGAUUUAUCCCUUGGCAGCUGUGGUAAAGUGAUGCAUUGCUCCUAG [Exclusion - Theophylline A (Freestyle 5)]    28.5
GAUCGACAAAACGUCUAGGAAAACUAGACGCGAGGACCGGUACGGCCGCCACUCGUCCUCACAUGAGGAUCACCCAUGUACGAUC [#SwitchBubble 2 #CuTurnoff]    30.3
AAGUGGCACGGAAGGAGCGAGUUUACCUAAAUAACAUGAGGAUCACCCAUGUAUAAUGGGACUCAGGUAGGUCGCCGUUGUCACU [Same State Arginine B GF 23]    22.9
CUACAUUUGUAGAAACCGGUCAACAAUAAUCGAGGACCGGUACGGCCGCCACUCGUAUAAUUUAUUACAUGAGGAUCACCCAUGU [Tryptophan A 2]    13.6

Item: UACAUGAGGAUCACCCAUGUCCCAUGUGAACGAGGACCGGUACGGCCGCCACUCGAAUAAGGCGGCACAUGAGGAUCACCCACAU [AstrosSSTry#2] | System: MS2 coat protein | apparent KD of MS2 coat protein: 283

Item: GGUUACUCUACGGCCGCCACUGUAAUGUAAAGAUUCCUGUACAUGACAUGAGGAUCACCCAUGUGCAGGACCGGGUAGUGUAACC [Tryptophan B 20] | System: MS2 coat protein | apparent KD of MS2 coat protein: 126

Item: GGGAGGGAGGCGGCCGCCACUGAUUUUCAUAUAUAUAUAACAUGAGGAUCACCCAUGUGGAUAUACAGGACCGGGCCUUUUUUUU [aaaH] | System: MS2 coat protein | apparent KD of MS2 coat protein: 17.6

Item: GCCGGGCCCGCGGCCGCCACUGAGAGAGUCGUGUGAACAUGAGGAUCACCCAUGUAAUAUAUAUACAGGACCGGGCGGGCCCGGC [4.X] | System: MS2 coat protein | apparent KD of MS2 coat protein: 13.8

Item: AAAACACAUGAGGAUCACCCAUGUCGUGAUACCAGUCAACAUGAGGACCCUUGGCAGCAUAAAAUGGGUAACAUGAGGAUCACCC [AstrosEXyTheA#5] | System: MS2 coat protein | apparent KD of MS2 coat protein: 65.3

Item: UUGUUGUUUGGAAGGAGCGUGGAUGAGUUAGAACAUGAGGAUCACCCAUGUUGGAUGAUACCGCAGGUAGGUCGCCGGGUGGUGG [11.aA] | System: MS2 coat protein | apparent KD of MS2 coat protein: 141

Item: AGUCUUGUGGGAAGGAGCGCAUACUUCACAUGAGGAUCACCCAUGUCAAGACGUGAGUCAGUGCAGGUAGGUCGCCUAACUAAGA [Same State - Arginine B (Freestyle 15)] | System: MS2 coat protein | apparent KD of MS2 coat protein: 53.1

Item: GGUCACCUAUCCUCAUUGGUGACCCUGGAAGGAGCGAGCGAGAGCUCAGGUAGGUCGCCAGAACAUGAGGAUCACCCAUGUAAUA [(A)''-(M)'-(A)'(Arg1)-(Arg2)-(M1)-(M2)_Design12] | System: MS2 coat protein | apparent KD of MS2 coat protein: 43.4

Item: GGGUACAUCACGGCCGCCACUCAUGUAAAUACAUGAGGAUCACCCAUGUCGAUGGAGACAUCGGAGAGGACCGGGUGAUGUACCG | System: MS2 coat protein | apparent KD of MS2 coat protein: 187
